system: T1, GFP-9S library array, motif 4 ND N98S;D124Q (synthetic construct, N98S;D124Q)
T1 chain: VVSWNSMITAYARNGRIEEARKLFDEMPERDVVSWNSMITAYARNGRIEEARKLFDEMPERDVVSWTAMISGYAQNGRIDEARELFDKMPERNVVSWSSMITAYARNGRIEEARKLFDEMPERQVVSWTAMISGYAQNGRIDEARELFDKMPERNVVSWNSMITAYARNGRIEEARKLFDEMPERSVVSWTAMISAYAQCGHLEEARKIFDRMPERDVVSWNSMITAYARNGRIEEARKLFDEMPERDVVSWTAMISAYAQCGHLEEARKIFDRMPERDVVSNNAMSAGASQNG
assayComment: high-throughput RNA pulldown from lysate on Ni-NTA beads; HRP: 50 mM Tris pH 8, 150 mM NaCl, 1 mM beta-mercaptoethanol, 50 ug/ml BSA, 3 ug/ml yeast RNA, 0.5% heparin; ITC and FP: Tris pH 8, 200 mM KCl, 5% glycerol; MST: 50 mM Tris pH 8, 200 mM NaCl, 1 mM DTT, BSA, heparin, 0.05% Tween 20
conditionLabel: tags: N-terminal His-eGFP; label: 5' Cy5
pKd: −log10 of the molar value.
In this section, each of the binders is paired with its reported pKd.
experimentalReadout: pKd

{"binder": "AUUACACGUGA (ssRNA) [Cy5-rpoA]", "measurement": 7.02}
{"binder": "AUUAGACGUGA (ssRNA) [Cy5-rpoA-G]", "measurement": 7.41}
